# assayed.target: human recombinant dopamine D3 receptor (Homo sapiens (Human))
# assay.comment: Test of binding inhibition for dopamine D3 receptor ([3H]-Methylspiperone SPA)
# applied.conditions: Jump-In HEK cell membranes, 2 nM [3H]-Methylspiperone, 120 min at 25° C.; read-out: hD3_Ki
# Experimental: (Experimental Conditions) Cell membranes: Jump-In HEK cell membranes expressing human recombinant dopamine D3 receptor (4 μg/well) Non-specific ligand: (final concentration) 10 μM Butaclamol [(+)-Butaclamol Hydrochloride, D033, Sigma] SPA beads solution: SPA beads [WGA PVT SPA Scintillation Beads, RPNQ0001 (500 mg), RPNQ0060 (2 g), PerkinElmer] (0.2 mg/well) Incubation time and temperature: 120 min at 25° C. […]
Ki strictly under 0.4 nM means Condition met; at 0.4 nM or over means Condition not met.

These solved cases illustrate the format of a correct answer.
Cc1ncc(CC(=O)N[C@H]2CC[C@H](CCN3CCc4nc(OCCC(F)(F)F)sc4CC3)CC2)o1    Condition met
Cc1ncc(CC(=O)N[C@H]2CC[C@H](CCN3CCc4nc(OCC(C)(F)F)sc4CC3)CC2)cn1    Condition met
O=C(N[C@H]1CC[C@H](CCN2CCc3nc(OCC(F)(F)F)sc3CC2)CC1)c1cccnc1C(F)F    Condition met
Cc1ncc(OCC(=O)N[C@H]2CC[C@H](CCN3CCc4nc(OCC(F)F)sc4CC3)CC2)cn1    Condition met

Report whether reported Ki is lower than 0.4 nM (strictly) for Cn1cc(CC(=O)N[C@H]2CC[C@H](CCN3CCc4ccc(OC5CCC5)nc4CC3)CC2)cn1
Condition not met

Report whether reported Ki is lower than 0.4 nM (strictly) for Cc1nc(CC(=O)N[C@H]2CC[C@H](CCN3CCc4nc(OCC(F)(F)F)sc4CC3)CC2)n(C)n1
Condition not met

====

# assayed.target: human recombinant dopamine D3 receptor (Homo sapiens (Human), UniProt P35462)
# Sequence (P35462 whole entry): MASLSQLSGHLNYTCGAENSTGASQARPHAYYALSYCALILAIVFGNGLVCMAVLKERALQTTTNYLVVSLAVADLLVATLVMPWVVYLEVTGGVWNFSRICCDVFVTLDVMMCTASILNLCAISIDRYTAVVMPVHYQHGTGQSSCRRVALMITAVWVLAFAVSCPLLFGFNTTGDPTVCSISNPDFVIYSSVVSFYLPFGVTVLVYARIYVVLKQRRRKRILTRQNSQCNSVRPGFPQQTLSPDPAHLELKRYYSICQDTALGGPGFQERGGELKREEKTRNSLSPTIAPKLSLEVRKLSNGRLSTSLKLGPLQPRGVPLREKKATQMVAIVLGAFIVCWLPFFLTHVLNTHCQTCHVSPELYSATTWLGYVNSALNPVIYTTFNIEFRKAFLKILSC
# assay.comment: Test of binding inhibition for dopamine D3 receptor ([3H]-Methylspiperone SPA)
# applied.conditions: Jump-In HEK cell membranes, 2 nM [3H]-Methylspiperone, 120 min at 25° C.; read-out: hD3_Ki
# Protocol: (Experimental Conditions) Cell membranes: Jump-In HEK cell membranes expressing human recombinant dopamine D3 receptor (4 μg/well) Non-specific ligand: (final concentration) 10 μM Butaclamol [(+)-Butaclamol Hydrochloride, D033, Sigma] SPA beads solution: SPA beads [WGA PVT SPA Scintillation Beads, RPNQ0001 (500 mg), RPNQ0060 (2 g), PerkinElmer] (0.2 mg/well) Incubation time and temperature: 120 min at 25° C. […]
endpoint.name: pKi
Numbers only, as −log10 of the molar value.

Cn1cc(CC(=O)N[C@H]2CC[C@H](CCN3CCc4ccc(OCC(F)F)nc4CC3)CC2)cn1    9.74
Cn1cc2c(C(=O)N[C@H]3CC4(C3)C[C@](F)(CCN3CCc5nc(OCC(F)(F)F)sc5CC3)C4)cccc2n1 (single isomer, unassigned)    9.48
Cc1ncc(CC(=O)N[C@H]2CC[C@H](CCN3CCc4ccc(OC(C)C)nc4CC3)CC2)o1    9.23

Record pKi for all entries; do not skip any.
1. Cc1ncccc1C(=O)NC12CCC(CCN3CCc4nc(OCC(F)(F)F)sc4CC3)(CC1)CC2
2. Cn1ncc(CC(=O)N[C@H]2CC[C@H](CCN3CCc4nc(OCC(F)(F)F)sc4CC3)CC2)n1
3. Cn1ncc(CC(=O)N[C@H]2CC[C@H](CCN3CCc4ccc(OCC(C)(F)F)nc4CC3)CC2)n1
4. Cc1ncc(CC(=O)N[C@H]2CC[C@H](CCN3CCc4ccc(CCC(F)(F)F)nc4CC3)CC2)cn1

1. 9.41
2. 10.15
3. 10.80
4. 9.44

====

# assayed.target: UniProt Q12809
# Sequence (Q12809 whole entry): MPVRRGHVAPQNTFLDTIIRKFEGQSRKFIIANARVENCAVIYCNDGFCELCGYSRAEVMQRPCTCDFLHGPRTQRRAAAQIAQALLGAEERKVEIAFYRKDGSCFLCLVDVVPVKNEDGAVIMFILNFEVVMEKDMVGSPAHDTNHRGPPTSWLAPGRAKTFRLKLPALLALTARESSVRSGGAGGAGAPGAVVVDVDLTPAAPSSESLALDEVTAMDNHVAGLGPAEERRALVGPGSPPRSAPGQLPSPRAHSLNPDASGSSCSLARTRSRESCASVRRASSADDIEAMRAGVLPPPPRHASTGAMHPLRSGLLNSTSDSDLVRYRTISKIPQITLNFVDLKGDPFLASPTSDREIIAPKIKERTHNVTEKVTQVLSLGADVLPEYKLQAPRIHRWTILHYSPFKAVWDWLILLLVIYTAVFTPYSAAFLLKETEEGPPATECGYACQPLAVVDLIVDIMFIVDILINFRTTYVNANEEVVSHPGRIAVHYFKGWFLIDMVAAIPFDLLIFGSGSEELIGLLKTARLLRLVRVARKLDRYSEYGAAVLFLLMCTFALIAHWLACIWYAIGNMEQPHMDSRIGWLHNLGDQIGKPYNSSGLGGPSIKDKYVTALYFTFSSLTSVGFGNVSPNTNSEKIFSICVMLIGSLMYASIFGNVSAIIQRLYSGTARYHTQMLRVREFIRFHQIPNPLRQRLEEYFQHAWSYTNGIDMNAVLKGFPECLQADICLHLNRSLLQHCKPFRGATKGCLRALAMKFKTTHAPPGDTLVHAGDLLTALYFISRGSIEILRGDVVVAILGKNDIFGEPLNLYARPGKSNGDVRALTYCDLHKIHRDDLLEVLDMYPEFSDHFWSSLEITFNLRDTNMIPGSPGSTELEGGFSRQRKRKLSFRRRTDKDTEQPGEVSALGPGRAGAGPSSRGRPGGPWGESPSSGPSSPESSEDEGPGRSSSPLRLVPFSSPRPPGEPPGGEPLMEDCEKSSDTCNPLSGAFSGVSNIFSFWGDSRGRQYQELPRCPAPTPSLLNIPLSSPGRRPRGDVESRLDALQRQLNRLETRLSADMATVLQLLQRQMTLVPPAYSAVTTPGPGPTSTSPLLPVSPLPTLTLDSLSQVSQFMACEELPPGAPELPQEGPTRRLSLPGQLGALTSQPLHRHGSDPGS
# assay.comment: hERG test (whole cell patch clamp, IKr)
# Format: cell-based
# applied.conditions: human, CHO cells expressing hERG channel, pH 7.4, 3 μM, tail peak current
# Method: Test Example 10: hERG Test […] After a cell was retained at a membrane potential of −80 mV by whole cell patch clamp method using an automated patch clamp system (QPatch; Sophion Bioscience A/S) and gave a leak potential of −50 mV, IKr induced by depolarization pulse stimulation at +20 mV for 2 seconds and, further, repolarization pulse stimulation at −50 mV for 2 seconds, was recorded. […]
endpoint.name: inhibition at 3 µM (%)
Give bare numbers, in %.

Cn1cc2c(C(=O)NN3CCC(CCN4CCc5sc(OCC(C)(F)F)nc5C4)CC3)cccc2n1    4.33
Cn1ncc(CC(=O)N[C@H]2CC[C@](F)(CCN3CCc4nc(OCC(F)F)sc4CC3)CC2)n1    24
Cn1ncc(CC(=O)N[C@H]2CC[C@](F)(CCN3CCc4nc(OCC(C)(F)F)sc4CC3)CC2)n1    17.3

# ---- query molecule ----
Would you kindly share the measured inhibition at 3 µM for Cn1cc2c(C(=O)N[C@H]3CC[C@H](CCN4CCc5ccc(OCC(C)(C)F)nc5CC4)CC3)cccc2n1 ?
31

====

# assayed.target: human recombinant dopamine D3 receptor (Homo sapiens (Human))
# assay.comment: Test of binding inhibition for dopamine D3 receptor ([3H]-Methylspiperone SPA)
# applied.conditions: Jump-In HEK cell membranes, 2 nM [3H]-Methylspiperone, 120 min at 25° C.; read-out: hD3_Ki
endpoint.name: pKi
One number for each entry, as −log10 of the molar value.

Cc1nc(CC(=O)N[C@H]2CC[C@H](CCN3CCc4sc(C5CC(F)(F)C5)nc4C3)CC2)no1 [Example I-070]    9.77
Cc1ncc(OCC(=O)N[C@H]2CC[C@](F)(CCN3CCc4nc(OCC(C)(F)F)sc4CC3)CC2)cn1 [Example I-044]    9.85

Record pKi for all entries; do not skip any.
1. Cc1nnc(CC(=O)N[C@H]2CC[C@](F)(CCN3CCc4ccc(CCC(F)(F)F)nc4CC3)CC2)s1 [III-1]
2. C[C@@H](Oc1ccc2c(n1)CCN(CC[C@H]1CC[C@H](NC(=O)Cc3cnn(C)n3)CC1)CC2)C(F)(F)F [Example I-128]
3. CN1Cc2c(C(=O)NC34CCC(CCN5CCc6nc(OCC(F)(F)F)sc6CC5)(CC3)CC4)cccc2C1=O [II-2]
4. Cn1cc2c(C(=O)NC34CCC(CCN5CCc6nc(OCC(F)(F)F)sc6CC5)(CC3)OC4)cccc2n1 [II-11]

1. 9.85
2. 10.14
3. 10.10
4. 9.64

Record pKi for all entries; do not skip any.
1. Cc1ncc(CC(=O)N[C@H]2CC[C@](F)(CCN3CCc4ccc(OCC(F)F)nc4CC3)CC2)o1 [Example I-026]
2. Cc1cnc(CC(=O)N[C@H]2CC[C@](F)(CCN3CCc4nc(OCC(C)(F)F)sc4CC3)CC2)o1 [Example I-015]
3. Cn1cc(CC(=O)N[C@H]2CC[C@H](CCN3CCc4nc(OCC(F)(F)F)sc4CC3)CC2)c(F)n1 [I′-24]
4. Cn1cc2c(C(=O)NN3CCC(CCN4CCc5ccc(OCC(F)(F)F)nc5CC4)CC3)cccc2n1 [Example I-016]
5. Cn1cc(CC(=O)N[C@H]2CC[C@](F)(CCN3CCc4nc(OCC(F)F)sc4CC3)CC2)c(F)n1 [I′-31]
6. Cc1cnc(CC(=O)N[C@H]2CC[C@](F)(CCN3CCc4ccc(OC5CCC5)nc4CC3)CC2)o1 [Example I-105]
7. Cc1ncc(CC(=O)N[C@H]2CC[C@](F)(CCN3CCc4nc(OCC(F)F)sc4CC3)CC2)o1 [Example I-060]
8. Cc1ncc(OCC(=O)N[C@H]2CC[C@H](CCN3CCc4nc(OCC(C)(F)F)sc4CC3)OC2)cn1 [Example I-068]

10.02
9.59
9.77
10.41
9.24
9.02
9.23
9.33

Would you kindly share the measured pKi for Cc1ncc(OCC(=O)N[C@H]2CC[C@H](CCN3CCc4ccc(O[C@H](C)C(F)(F)F)nc4CC3)CC2)cn1 [Example I-127] ?
9.92

====

# assayed.target: human recombinant dopamine D2 receptor (Homo sapiens (Human), UniProt P14416)
# Sequence (P14416 whole entry): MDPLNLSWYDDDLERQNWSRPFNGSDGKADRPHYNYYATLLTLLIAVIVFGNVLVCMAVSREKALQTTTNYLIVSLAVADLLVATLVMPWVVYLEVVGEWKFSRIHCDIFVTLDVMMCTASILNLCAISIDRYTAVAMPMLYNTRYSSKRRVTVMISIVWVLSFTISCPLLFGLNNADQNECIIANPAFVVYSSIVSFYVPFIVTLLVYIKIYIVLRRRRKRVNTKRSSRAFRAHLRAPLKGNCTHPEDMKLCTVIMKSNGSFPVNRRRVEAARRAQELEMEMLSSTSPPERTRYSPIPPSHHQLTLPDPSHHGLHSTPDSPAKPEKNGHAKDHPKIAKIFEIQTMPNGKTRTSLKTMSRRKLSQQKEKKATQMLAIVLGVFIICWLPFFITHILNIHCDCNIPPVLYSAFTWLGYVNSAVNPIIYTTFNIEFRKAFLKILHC
# assay.comment: Test of binding inhibition for dopamine D2 receptor ([3H]-Methylspiperone SPA)
# applied.conditions: Jump-In HEK cell membranes, 1.2 nM [3H]-Methylspiperone, 120 min at 25° C.; read-out: hD2_Ki
Would you mind telling me the reported Ki of each entry?
Answers are plain numbers, in nM.

Sample answers from the record:
Cn1cc(CC(=O)N[C@H]2CC[C@H](CCN3CCc4nc(OC5CC(F)(F)C5)sc4CC3)CC2)cn1    1900
Cc1nc(CC(=O)N[C@H]2CC[C@H](CCN3CCc4nc(OCC(F)(F)F)sc4CC3)CC2)n(C)n1    1000
Cc1ncc(CC(=O)N[C@H]2CC[C@](F)(CCN3CCc4nc(OCC(F)F)sc4CC3)CC2)o1    1400
Cc1nc(CC(=O)N[C@H]2CC[C@H](CCN3CCc4ccc(O[C@H](C)C(F)(F)F)nc4CC3)CC2)nn1C    1200
Cc1ncc(OCC(=O)N[C@H]2CC[C@H](CCN3CCc4sc(C5CC(F)(F)C5)nc4C3)CC2)cn1    670
COC(CN1CCc2sc(OCC(F)(F)F)nc2C1)[C@H]1CC[C@H](NC(=O)c2cccc3nn(C)cc23)CC1 (stereo partly shown)    270
C[C@H](Oc1nc2c(s1)CCN(CC[C@H]1CC[C@H](NC(=O)c3cccc(=O)n3C)CC1)CC2)C(F)(F)F    1000
Cc1nnc(CC(=O)N[C@H]2CC[C@H](CCN3CCc4sc(C5CC(F)(F)C5)nc4C3)OC2)o1    950
Cc1ncc(OCC(=O)N[C@H]2CC[C@](F)(CCN3CCc4ccc(OCC(F)F)nc4CC3)CC2)cn1    610
Cc1ncc(CC(=O)N[C@H]2CC[C@H](CCN3CCc4nc(OCC(F)(F)F)sc4CC3)CC2)cn1    460

Record Ki for all entries; do not skip any.
1. CC(F)(F)COc1nc2c(s1)CCN(CC[C@H]1CC[C@H](NC(=O)c3cccnc3C(F)F)CC1)CC2
2. Cc1nnc(CC(=O)N[C@H]2CC[C@H](CCN3CCc4ccc(OCC(F)F)nc4CC3)CC2)o1
3. CCc1ncccc1C(=O)N[C@H]1CC[C@H](CCN2CCc3ccc(OC4CCC4)nc3CC2)CC1
4. Cn1cc2c(C(=O)N[C@H]3CC4(C3)C[C@](F)(CCN3CCc5nc(OCC(F)(F)F)sc5CC3)C4)cccc2n1 (single isomer, unassigned)

1. 430
2. 1200
3. 1300
4. 310

Record Ki for all entries; do not skip any.
1. CC(Oc1ccc2c(n1)CCN(CC[C@H]1CC[C@H](NC(=O)c3cccc4nn(C)cc34)CC1)CC2)C(F)F (single isomer, unassigned) [Example I-124]
2. Cc1c(F)cccc1C(=O)N[C@H]1CC[C@H](CCN2CCc3nc(OCC(C)(F)F)sc3CC2)OC1
3. CC(C)Oc1ccc2c(n1)CCN(CC[C@H]1CC[C@H](NC(=O)c3cccc4c(=O)n(C)ccc34)CC1)CC2

[180, 340, 1700]

Record Ki for all entries; do not skip any.
1. C[C@H](Oc1nc2c(s1)CCN(CC[C@H]1CC[C@H](NC(=O)Cc3cnn(C)n3)CC1)CC2)C(F)(F)F
2. Cc1nnc(CC(=O)N[C@H]2CC[C@H](CCN3CCc4nc(OCCC(F)(F)F)sc4CC3)CC2)o1
3. O=C(N[C@H]1CC[C@H](CCN2CCc3nc(OCC(F)F)sc3CC2)CC1)c1cccnc1C(F)F
4. Cc1nnc(CC(=O)N[C@H]2CC[C@H](CCN3CCc4ccc(OC(C)C)nc4CC3)CC2)s1

1600
1500
940
1500

Would you kindly share the measured Ki for Cc1nnc(CC(=O)N[C@H]2CC[C@H](CCN3CCc4sc(C5CC(F)(F)C5)nc4C3)CC2)s1 ?
450
